FYI, the data here is from patent US9150592B2.

The following compounds are listed with their measured Emax values.
System: IL-6 in A549 cells stimulated with IL-1β
run description: A549 Cell Assay to Measure Inflammation Markers (inhibition of IL-1β-induced IL-6)
Type: cell-based
assay conditions: Homo sapiens, A549, A549 Cell Assay to Measure Inflammation Markers; intrinsic activity, Emax class ranges

Solved cases below.
Cn1nc(C2CCCC2)c2c1NCCSC2c1ccc(Cl)cc1Cl (stereo not shown) [D.77]; < 50%
Cc1cc(Br)ccc1[C@@H]1SC[C@H](CO)Nc2c1c(-c1ccccn1)nn2C (racemic) [K.9]; < 50%
Cc1cc(Cl)ccc1[C@@H]1SC(C)(C)CNc2c1c(C1CC1)nn2C; < 50%

Problem: Report value only: Emax, IL-6 in A549 cells stimulated with IL-1β, COc1ccc(C2SCCNc3c2c(-c2ccccn2)nn3C)c(C)c1 (stereo not shown) [D.10]
Solution: < 50%

Problem: Report value only: Emax, IL-6 in A549 cells stimulated with IL-1β, Cc1cc(C(=O)Nc2cccnc2C)ccc1C1SCCNc2c1c(-c1ccccn1)nn2C (stereo not shown)
Solution: > 70%
